Biological target: T1, Human BCMA (human, UniProt Q02223 1-54, limits assumed)
T1 construct: Soluble analyte in SPR; construct not described; also called huBCMA; B-cell maturation antigen
T1 sequence (looked up): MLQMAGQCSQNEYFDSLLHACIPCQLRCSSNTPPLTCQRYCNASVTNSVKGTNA
Assay: SPR, IgG immobilised, 37 C
Experimental: All experiments were performed on a Bio-Rad Proteon XPR36 surface Plasmon resonance biosensor (Bio-Rad, Hercules, Calif.). […] The analysis temperature for the immobilization was 25° C. and the running buffer was HBS-T+(10 mM HEPES, 150 mM NaCl, 0.05% Tween-20, pH 7.4). […] The analysis temperature for the BCMA binding analysis was 37° C. or 25° C. in a running buffer of HBS-T+, supplemented with 1 mg/mL BSA. […] Immediately after the 50 nM BCMA injection, dissociation was monitored for 2 hours. […]
Form field: koff (one value per entry).
Report field: quantity (unit follows the number).

Before answering, review these 2 worked examples.
Given item L3.PY/L3.KY/H3.YA (antibody, V domains shown, IgG) VH: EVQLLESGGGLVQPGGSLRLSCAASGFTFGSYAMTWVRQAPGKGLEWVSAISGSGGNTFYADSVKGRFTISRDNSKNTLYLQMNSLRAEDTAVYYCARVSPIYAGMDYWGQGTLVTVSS VL: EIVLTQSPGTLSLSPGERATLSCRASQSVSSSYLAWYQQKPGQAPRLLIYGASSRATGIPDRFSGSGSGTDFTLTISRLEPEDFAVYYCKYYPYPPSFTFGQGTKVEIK , the value recorded as its koff is 0.000912 s⁻¹

Given item L3.PY/L3.KY/H2.YQ (antibody, V domains shown, IgG) VH: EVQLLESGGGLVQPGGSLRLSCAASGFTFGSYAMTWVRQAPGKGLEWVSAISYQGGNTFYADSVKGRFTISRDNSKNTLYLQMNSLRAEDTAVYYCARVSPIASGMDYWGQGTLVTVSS VL: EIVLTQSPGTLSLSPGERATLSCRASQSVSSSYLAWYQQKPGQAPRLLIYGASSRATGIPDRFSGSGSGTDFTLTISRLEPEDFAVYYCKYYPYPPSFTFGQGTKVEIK , the value recorded as its koff is 0.00165 s⁻¹

Further cases:
Given item L3.PY/H2.DY (antibody, V domains shown, IgG) VH: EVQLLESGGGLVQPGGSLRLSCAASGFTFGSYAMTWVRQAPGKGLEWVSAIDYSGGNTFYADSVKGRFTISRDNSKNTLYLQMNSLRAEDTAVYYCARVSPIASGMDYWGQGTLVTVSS VL: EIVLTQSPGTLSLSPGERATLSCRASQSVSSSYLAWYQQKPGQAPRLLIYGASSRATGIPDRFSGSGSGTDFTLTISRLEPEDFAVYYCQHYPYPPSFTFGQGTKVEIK , the value recorded as its koff is 0.00138 s⁻¹
